Test: Unbound fraction in liver (BRAINstorm)
Type: in vitro ADME
Settings: liver; read-out: fu, liver (unbound fraction in liver)
endpoint label: fraction unbound

- O=c1[nH]c(-c2cccnc2)nc2[nH]ncc12 [ORI-TRN-002]: 1

**Query** So what does the record say about fraction unbound for O=C(Nc1nncs1)c1cccnc1 [TGN-020, 2-(nicotinamide)-1,3,4-thiadiazole] ?
**Result** 1

* * *

Target: rat serum albumin (Rattus norvegicus)
Sequence (P02770 25-608): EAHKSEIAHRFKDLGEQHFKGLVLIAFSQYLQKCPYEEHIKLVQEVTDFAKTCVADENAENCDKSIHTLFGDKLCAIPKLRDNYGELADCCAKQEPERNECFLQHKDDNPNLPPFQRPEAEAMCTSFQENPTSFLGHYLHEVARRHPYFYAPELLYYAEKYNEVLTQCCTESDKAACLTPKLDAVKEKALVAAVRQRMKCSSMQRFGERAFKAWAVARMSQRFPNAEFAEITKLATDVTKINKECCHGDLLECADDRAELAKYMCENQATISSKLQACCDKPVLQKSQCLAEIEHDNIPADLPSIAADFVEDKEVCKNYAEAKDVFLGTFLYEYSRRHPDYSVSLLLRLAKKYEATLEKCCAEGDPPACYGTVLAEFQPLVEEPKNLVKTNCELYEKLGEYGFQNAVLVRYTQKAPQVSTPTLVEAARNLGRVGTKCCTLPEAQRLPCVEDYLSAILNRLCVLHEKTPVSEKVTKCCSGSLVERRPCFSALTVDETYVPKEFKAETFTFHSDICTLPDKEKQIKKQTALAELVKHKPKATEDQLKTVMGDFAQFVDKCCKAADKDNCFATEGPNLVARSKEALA
Test: Rat serum albumin affinity (BRAINstorm affinity chromatography)
Format: binding
endpoint label: Kd
Kindly report the value followed by its unit.

**Query** So what does the record say about Kd for O=C(Nc1cc(C(F)(F)F)cc(C(F)(F)F)c1)c1cc(Cl)ccc1O ?
**Result** 5.5 µM
